Target: Glutamate NMDA receptor
Assay: Displacement of [3H]CGP39653 from NMDA receptor in rat brain membrane
pKi: −log10 of the molar value.
Measured pKi values are reported for all entries that follow.
PROPERTY: pKi

> print(dat)
                             molecule             study.target  property  result
1   NC(Cc1onc(O)c1Cl)C(=O)O (racemic)  Glutamate NMDA receptor       pKi    4.74
2  O=C(O)C1NCCc2c1o[nH]c2=O (racemic)  Glutamate NMDA receptor       pKi  < 4.00
3          O=C(O)[C@H]1Cc2c(O)noc2CN1  Glutamate NMDA receptor       pKi  < 4.00
